system: OVCAR-5 ovarian; assay: NCI-60 one-dose screen, 48 h (100 = growth as untreated, 0 = no growth, -100 = all killed); details: 10 µM unless noted
This is part of a sample that, as a whole, favours compounds with a hit. Of some 83,000 tested, about 20% had one in any assay.
The reader will find reported growth values listed item by item below.
Your answer should be a plain number; it is taken to be in %.

The cases that follow already have their growth on record.
molecule: COc1ccc(-c2cc3c4c(nc5ccccc5c4c2)CC(c2cc(OC)c(OC)c(OC)c2)O3)cc1 (stereo not drawn)
uom: %
dataValue: 18.4
--
molecule: O=C(Nc1ccc(Cl)cc1F)c1ccccc1O
uom: %
dataValue: 71.1
--
molecule: OC(c1ccccc1)C(NC(Cc1ccccc1)c1ccccc1)c1ccccc1 (stereo not drawn)
uom: %
dataValue: 90.8

Task item: Could you share which growth value was measured for Cc1nc(/N=C(\N)NC(=O)Nc2ccccc2Cl)sc1C ?
Reply: 51.3

Task item: Same for O=C(Nc1nc2ccc(F)cc2s1)c1cccnc1Nc1ccc(Cl)cc1Cl
Reply: 64.3

Cited source for all entries: PubChem BioAssay (NCI)
